Numbers sourced from patent US20130251724A1.

# TESTED_ON: T1, Cynomolgus OSM (cynomolgus, UniProt A0A2K5VPC6 26-221)
# T1 construct: also called Cyno OSM; cynomolgus macaque OSM
# T1 sequence: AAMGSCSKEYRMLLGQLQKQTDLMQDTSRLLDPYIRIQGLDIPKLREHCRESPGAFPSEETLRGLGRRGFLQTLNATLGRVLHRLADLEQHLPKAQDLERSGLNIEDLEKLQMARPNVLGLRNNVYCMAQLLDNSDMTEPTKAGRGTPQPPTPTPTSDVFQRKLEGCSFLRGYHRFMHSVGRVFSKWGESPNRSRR
# ASSAY: BIAcore kinetics
// values below are reported pKd
# pKd = -log10(concentration in molar units)

Example entries begin here.
BINDER: anti human OSM mAb S168110G08(1)1A09 (10G8), murine (antibody, V domains shown, Mouse hybridoma mAb; also called 10G8/A9; 10G8.A9) VH: EMQLVESGEGLVEPGGSLKLSCAASGFTFSNYAMSWVRQTPEKSLEWVATISDGGSFTYYLDNVRGRFTISRDNAKNNLYLQMSHLKSDDTAMYYCARDVGHTTFWYFDVWGSGTAVTVSS VL: DIVLTQSPVFLVVSLGQRATISCRASKSVSAAGYNFMHWYQQKPGQPPKVLIKYASNLESGVPARFSGSGSGTDFTLNIHPVEEEDAVTYYCLHSREFPFTFGGGTNLEIK
OBSERVED_RESULT: 9.51
//
BINDER: 2B7, murine anti-OSM mAb (antibody, V domains shown, Mouse hybridoma mAb; also called 2B7/A6; 2B7.A6) VH: EVQLVESGGGLVKPGGSLKLSCAASGFTFSNYAMSWVRQTPEKRLEWVATISDGGGYTYYLDNGQGRFTISRDNAKNNLYLQMSHLKSEDTAMYYCARDVGLTTFWYFDVWGTGTTVTVSS VL: DIVLTQSPVSLVISLGQRATISCRASKSVSPSSYNFMHWYQQRPGQPPKLLITYASNLESGVPARFSGSGSGTDFTLNIHPVEEEDAATYYCQHSREFPFTFGGGTRLEIK
OBSERVED_RESULT: 8.03
//
BINDER: 3E3, murine anti-OSM mAb (antibody, V domains shown, Mouse hybridoma mAb; also called 3E3/A1; 3E3.A1) VH: EVQLVESGGDLVKPGGSLKLSCVPSGFTFSSYAMSWVRQTPEKRLEWVATISDGGSFTYYFANIQGRFTISRDNTKNNLYLQMNHLKSEDAGMYYCARDVGLTTFWYFDVWGTGTTVTVSS VL: DIVLTQSPASLTISLGQRATISCRASKSVSPSGYDFMHWYQQKPGQPPKLLIKYASELESGVPGRFSGSGSGTDFTLNIHPVEEEDAATYFCQHSREFPFTFGGGTKLEIK
OBSERVED_RESULT: 8.48

Inquiry: Return the recorded pKd value; entry: 9G2, murine anti-OSM mAb (antibody, V domains shown, Mouse hybridoma mAb; also called 9G2/C1; 9G2.C1) VH: EVQLVESGGGLVEPGGSLKLSCAASGFTFSNYAMSWVRQTPEKRLEWVATISDGGSFTYYLDNVKGRFTISRDNAKNNLYLQMSHLKSDDTAMYYCARDVGHTTFWYFDVWGTGTTVTVSS VL: DIVLTQSPVFLVISLGQRATISCRASKSVSASGYNFMHWYQQKPGQPPKVLIKYASNLESGVPARFSGSGSGTDFTLNIHPVEEEDAVTYYCQHSREFPFTFGGGTKLEIK
Reply text: 9.12
